Values compiled from paper PMC9572397.

# systemTested: SARS-CoV-2 3CL Protease (Severe acute respiratory syndrome coronavirus 2, UniProt P0DTD1)
# experimentSummary: 3CL protease SARS-CoV-2 activity (M^Pro assay), fluorescence kit
# Format: biochemical
# experimentalSetup: Conc. 1; positive control 120
The entries below come with measured Kinetic Activity values attached.

# compound, Kinetic Activity
records = [
    ("O=C(O)c1cc(O)c(O)c(O)c1", 109.237),
    ("O=c1cc(-c2ccc(O)cc2)oc2c([C@@H]3O[C@H](CO)[C@@H](O)[C@H](O)[C@H]3O)c(O)cc(O)c12", 110.257),
    ("CC1=CC(=O)c2c(O)cccc2C1=O [Plumbagin, reference compound]", 102.853),
    ("Oc1cc(O)c2c(c1)O[C@H](c1ccc(O)c(O)c1)[C@@H](O)C2", 107.173),
    ("O=c1cc(-c2ccc(O)c(-c3c(O)cc(O)c4c(=O)cc(-c5ccc(O)cc5)oc34)c2)oc2cc(O)cc(O)c12", 112.981),
    ("C[C@@H]1O[C@@H](O[C@H]2[C@H](Oc3cc(O)c4c(c3)O[C@H](c3ccc(O)cc3)CC4=O)O[C@H](CO)[C@@H](O)[C@@H]2O)[C@H](O)[C@H](O)[C@H]1O", 101.965),
    ("O=C(O)/C=C/c1ccc(O)cc1", 113.905),
    ("C[C@@H]1O[C@@H](OC[C@H]2O[C@@H](Oc3c(-c4ccc(O)c(O)c4)oc4cc(O)cc(O)c4c3=O)[C@H](O)[C@@H](O)[C@@H]2O)[C@H](O)[C@H](O)[C@H]1O", 110.065),
]

----------
# systemTested: SARS-CoV-2 3CL Protease (Severe acute respiratory syndrome coronavirus 2)
# experimentSummary: 3CL protease SARS-CoV-2 activity (M^Pro assay), fluorescence kit
# Format: biochemical
# experimentalSetup: Conc. 100; positive control 120
Examples of molecules with documented Kinetic Activity follow.

# molecule, Kinetic Activity
measured = [
    ("C[C@@H]1O[C@@H](OC[C@H]2O[C@@H](Oc3c(-c4ccc(O)c(O)c4)oc4cc(O)cc(O)c4c3=O)[C@H](O)[C@@H](O)[C@@H]2O)[C@H](O)[C@H](O)[C@H]1O [Compound 4, rutin]", 32.3043),
    ("O=c1cc(-c2ccc(O)cc2)oc2c([C@@H]3O[C@H](CO)[C@@H](O)[C@H](O)[C@H]3O)c(O)cc(O)c12 [Compound 3, vitexin]", 46.7405),
    ("O=C(O)/C=C/c1ccc(O)cc1 [Compound 7, p-coumaric acid]", 42.0724),
]

----------
Entries and their Kinetic Activity values follow.
# systemTested: SARS-CoV-2 3CL Protease (Severe acute respiratory syndrome coronavirus 2)
# experimentSummary: 3CL protease SARS-CoV-2 activity (M^Pro assay), fluorescence kit
# Assay type: biochemical
# experimentalSetup: Conc. 10; positive control 120
propertyLabel: Kinetic Activity

# smilesRepr, assayResult
data = [
    ("O=C(O)/C=C/c1ccc(O)cc1", 100.333),
    ("C[C@@H]1O[C@@H](O[C@H]2[C@H](Oc3cc(O)c4c(c3)O[C@H](c3ccc(O)cc3)CC4=O)O[C@H](CO)[C@@H](O)[C@@H]2O)[C@H](O)[C@H](O)[C@H]1O", 80.2328),
    ("O=c1cc(-c2ccc(O)c(-c3c(O)cc(O)c4c(=O)cc(-c5ccc(O)cc5)oc34)c2)oc2cc(O)cc(O)c12", 94.7529),
    ("O=C(O)c1cc(O)c(O)c(O)c1", 93.0969),
    ("Oc1cc(O)c2c(c1)O[C@H](c1ccc(O)c(O)c1)[C@@H](O)C2", 83.2328),
    ("O=c1cc(-c2ccc(O)cc2)oc2c([C@@H]3O[C@H](CO)[C@@H](O)[C@H](O)[C@H]3O)c(O)cc(O)c12", 99.133),
]
